# Test system: MAP3K15;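 note: KINOMEscan kinase panel screen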
# Stated conditions: concentration: 1 μM,replicates: in singlicate; n = 1
Result type: %Inh

The following molecules have reported results that may help.
Molecule: CC(C(=O)NC1CCN(c2ccnc(Nc3ccc(F)cc3)n2)C1)c1ccc(Cl)cc1 (stereo not drawn)
%Inh: 0%
//
Molecule: CCOC(=O)N1CCC(n2cnc(-c3ccc(F)cc3)c2-c2ccnc(N)n2)CC1
%Inh: 36%
//
Molecule: COc1cc(Nc2nccc(N3CCC(NC(=O)c4cccc(C#N)c4)C3)n2)cc(OC)c1OC (stereo not drawn)
%Inh: 0%
//
Molecule: OCCn1cc(-c2cnc3nnn(Cc4ccc5ncccc5c4)c3n2)cn1
%Inh: 0%
//
Molecule: O=c1[nH]cc(-c2ccc(O)cc2)c2sc(-c3ccncc3)cc12
%Inh: 0%
//
Molecule: Cl.Cl.NC[C@H](CC1CCCCC1)NC(=O)c1ccc(-c2ccnc3[nH]ccc23)s1
%Inh: 25%
//
Molecule: NC(=O)Nc1sc(-c2ccc(F)cc2)cc1C(N)=O
%Inh: 16%
//
Molecule: CCn1c(-c2nonc2N)nc2cncc(CNC3CCNCC3)c21.Cl
%Inh: 3%
//
Molecule: Cn1ccc2ncnc(Oc3ccc(NC(=O)Nc4cccc(C(F)(F)F)c4)c(Cl)c3)c21
%Inh: 0%
//
Molecule: O=C(Nc1cccc(C(F)(F)F)c1)c1cccc(Oc2ccc3nccn3n2)c1
%Inh: 1%

Query: Fill in: %Inh of CCNCC(Cc1ccccc1)NC(=O)c1cc(Br)c(-c2ccnc3[nH]ccc23)s1.Cl.Cl (stereo not drawn) is ___
Response: 0%

Query: Fill in: %Inh of CC(=O)c1c(-c2ccncc2)[nH]c(-c2ccncc2)c1C is ___
Response: 0%

Query: Fill in: %Inh of CS(=O)(=O)c1cccc(CNc2nc(Nc3ccc4c(c3)[C@@H]3C[C@@H]4CNC3=O)ncc2C(F)(F)F)c1 is ___
Response: 0%

Query: Fill in: %Inh of COc1ccc(Nc2nccc(N3CCC(NC(=O)c4cccc(C#N)c4)C3)n2)cc1 (stereo not drawn) is ___
Response: 0%

Query: Fill in: %Inh of Cc1ccc(CC(=O)N2CCc3cc(-c4cn(C)c5ncnc(N)c45)ccc32)cc1 is ___
Response: 0%

Query: Fill in: %Inh of COc1cccc(OC)c1C(=O)Nc1cccc(-c2nn3ccccc3c2-c2ccnc(Nc3cccc(F)c3)n2)c1 is ___
Response: 0%

Query: Fill in: %Inh of Cn1cc(-c2cccc3c(N)c(C(N)=O)nnc23)cn1 is ___
Response: 7%

Query: Fill in: %Inh of Cc1ccc(C(=O)Nc2ccc(Oc3ccc4nc(NC(=O)C5CC5)cn4c3)c(F)c2)c(=O)n1-c1ccccc1 is ___
Response: 0%
